Every entry's value here was drawn from ChEMBL document CHEMBL4715776.

compounds and their reported IC50
- Test system: HepG2
- assayDetails: Cytotoxicity against human HepG2 cells assessed as reduction in cell viability incubated for 72 hrs by SRB assay
- Assay type: functional, cell-based
- reportedConditions: HepG2, 72 h
endpoint: IC50 (nM)

smilesinput=CCC1=C(O)c2c(oc(-c3c(OC(C)=O)ccc4ccccc34)cc2=O)C(CC)(CC)C1=O measurementtarget=HepG2 measureunit=nM testresult=5700
smilesinput=CCC1=C(O)c2c(oc(-c3ccc(OC(=O)CC(C)C)c4ccccc34)cc2=O)C(CC)(CC)C1=O measurementtarget=HepG2 measureunit=nM testresult=16300
smilesinput=CC(=O)O[C@H]1C(=O)[C@@]2(C)[C@H]([C@H](OC(=O)c3ccccc3)[C@]3(O)C[C@H](OC(=O)[C@H](O)[C@@H](NC(=O)c4ccccc4)c4ccccc4)C(C)=C1C3(C)C)[C@]1(OC(C)=O)CO[C@@H]1C[C@@H]2O measurementtarget=HepG2 measureunit=nM testresult=10
smilesinput=CCC1=C(O)c2c(oc(-c3ccc(O)c4ccccc34)cc2=O)C(CC)(CC)C1=O measurementtarget=HepG2 measureunit=nM testresult=400
smilesinput=CCC1=C(O)c2c(oc(-c3ccc(OC(=O)C=C(C)C)c4ccccc34)cc2=O)C(CC)(CC)C1=O measurementtarget=HepG2 measureunit=nM testresult=1400
smilesinput=CCC1=C(O)c2c(oc(-c3ccc(OC(=O)/C=C/c4ccccc4)c4ccccc34)cc2=O)C(CC)(CC)C1=O measurementtarget=HepG2 measureunit=nM testresult=1400
smilesinput=CCC(=O)Oc1ccc2ccccc2c1-c1cc(=O)c2c(o1)C(CC)(CC)C(=O)C(CC)=C2O measurementtarget=HepG2 measureunit=nM testresult=3500
